Test: Brain pharmacokinetics and brain/plasma ratio in male CD-1 mice (1 mg/kg i.v.)
Type: in vivo
Conditions: male, CD-1, mouse, brain, intravenous, 1 mg/kg, 1 mg/kg bolus i.v., 2 h; read-out: Brain concentration, Mean
propertyName: concentration at 2 h (ng/g)

Task: Requested read-out: concentration at 2 h. Entry: CCn1c(=S)c2c(nc(/C=C/c3ccc(OC)c(OC)c3)n2C)n(CC)c1=O [Formula III]
Result: 225

Task: Please answer likewise for CCn1c(=O)c2c(nc(/C=C/c3ccc(OC(F)F)c(OC(F)F)c3)n2C)n(CC)c1=O [Formula I]
Result: 180

Task: Same read-out for CCn1c(=O)c2c(nc(/C=C/c3ccc(OC)c(OC)c3)n2C)n(CC)c1=O [Istradefylline, reference compound] ?
Result: 169

====

Assay: Brain pharmacokinetics and brain/plasma ratio in male CD-1 mice (1 mg/kg i.v.)
Format: in vivo
Settings: male, CD-1, mouse, brain and plasma, iv, 1 mg/kg, 1 mg/kg bolus i.v., 0.25 h; read-out: Brain/plasma concentration ratio, Mean
propertyName: Kp at 0.25 h

(1) CCn1c(=O)c2c(nc(/C=C/c3ccc(OC)c(OC)c3)n2C)n(CC)c1=O [Istradefylline, reference compound]
(2) CCn1c(=O)c2c(nc(/C=C/c3ccc(OC(F)F)c(OC(F)F)c3)n2C)n(CC)c1=O [Formula I]
Task: # query: argmin of Kp at 0.25 h over 1 and 2 To answer, give the label that identifies your chosen option.
Result: 1
(1: 0.516, 2: 0.74)

====

Assay: Plasma pharmacokinetics in male CD-1 mice (1 mg/kg i.v. or 3 mg/kg p.o.)
Details: CD-1, mouse, in vivo, po, 3 mg/kg
propertyName: AUC(0-inf) (ng·h/mL)

Task: Reported AUC(0-inf), compound CCn1c(=S)c2c(nc(/C=C/c3ccc(OC)c(OC)c3)n2C)n(CC)c1=O [Formula III] : ____
Result: 1020

(a) CCn1c(=O)c2c(nc(/C=C/c3ccc(OC)c(OC)c3)n2C)n(CC)c1=O [Istradefylline, reference compound]
(b) CCn1c(=O)c2c(nc(/C=C/c3ccc(OC(F)F)c(OC(F)F)c3)n2C)n(CC)c1=O [Formula I]
Task: Consider a and b . Which of these has its AUC(0-inf) at a higher number? Lab log: write the label of the selected item as the result.
Result: b

====

Experiment: Brain pharmacokinetics and brain/plasma ratio in male CD-1 mice (1 mg/kg i.v.)
Format: in vivo
Details: male, CD-1, mouse, brain, intravenous, 1 mg/kg, 1 mg/kg bolus i.v., 0.5 h, individual animals 1-3; read-out: Brain concentration
propertyName: concentration at 0.5 h (ng/g)

Task: Requested read-out: concentration at 0.5 h. Entry: `CCn1c(=O)c2c(nc(/C=C/c3ccc(OC(F)F)c(OC(F)F)c3)n2C)n(CC)c1=O`
Result: 377

Task: Similarly, `CCn1c(=S)c2c(nc(/C=C/c3ccc(OC)c(OC)c3)n2C)n(CC)c1=O` ?
Result: 379

Task: What about CCn1c(=O)c2c(nc(/C=C/c3ccc(OC)c(OC)c3)n2C)n(CC)c1=O [Istradefylline, reference compound] ?
Result: 372

====

Test: Brain pharmacokinetics and brain/plasma ratio in male CD-1 mice (1 mg/kg i.v.)
Format: in vivo
Settings: male, CD-1, mouse, brain, intravenous, 1 mg/kg, 1 mg/kg bolus i.v., 0.5 h; read-out: Brain concentration, Mean
propertyName: concentration at 0.5 h (ng/g)

Task: Given the compound CCn1c(=O)c2c(nc(/C=C/c3ccc(OC)c(OC)c3)n2C)n(CC)c1=O [Istradefylline, reference compound] , what is its reported concentration at 0.5 h?
Result: 279

Task: Next: `CCn1c(=S)c2c(nc(/C=C/c3ccc(OC)c(OC)c3)n2C)n(CC)c1=O`
Result: 380

Task: Please give the result for `CCn1c(=O)c2c(nc(/C=C/c3ccc(OC(F)F)c(OC(F)F)c3)n2C)n(CC)c1=O` too.
Result: 347
